Biological target: T1, M1 muscarinic acetylcholine receptor (Homo sapiens, UniProt P11229)
T1 chain: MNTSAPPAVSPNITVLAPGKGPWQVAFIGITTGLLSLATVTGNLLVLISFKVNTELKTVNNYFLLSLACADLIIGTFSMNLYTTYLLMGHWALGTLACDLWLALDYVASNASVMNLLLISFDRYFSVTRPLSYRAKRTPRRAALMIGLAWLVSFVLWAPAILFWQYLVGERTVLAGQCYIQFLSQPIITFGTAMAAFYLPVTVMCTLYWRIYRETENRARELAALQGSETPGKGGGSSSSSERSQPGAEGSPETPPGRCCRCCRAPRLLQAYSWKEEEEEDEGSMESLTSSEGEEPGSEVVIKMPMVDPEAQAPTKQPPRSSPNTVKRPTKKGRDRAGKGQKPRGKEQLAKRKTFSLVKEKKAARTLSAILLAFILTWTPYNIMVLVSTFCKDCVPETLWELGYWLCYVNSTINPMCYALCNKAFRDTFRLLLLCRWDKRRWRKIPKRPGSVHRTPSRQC
Assay: 3H-NMS radioligand pseudocompetition binding (allosteric model)
propertyLabel: pKd
FYI, pKd means -log10 of a concentration in mol per litre.

IN: Query: pKd; subject: SLURP-2 (protein) IWCHQCTGFGGCSHGSRCLRDSTHCVTTATRVLSNTEDLPLVTKMCHIGCPDIPSLGLGPYVSIACCQTSLCNHD
OUT: 6.64
